# TARGET: Ubiquitin carboxyl-terminal hydrolase isozyme L1 (Mus musculus)
# Sequence (Q9R0P9 whole entry): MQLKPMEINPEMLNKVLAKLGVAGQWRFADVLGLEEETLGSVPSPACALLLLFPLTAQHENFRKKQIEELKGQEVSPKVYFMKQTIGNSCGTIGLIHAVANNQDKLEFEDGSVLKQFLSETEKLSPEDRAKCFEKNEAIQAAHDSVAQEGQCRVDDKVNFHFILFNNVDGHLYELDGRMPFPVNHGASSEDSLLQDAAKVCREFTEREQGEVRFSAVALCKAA
PROPERTY MEASURED: log10 IC50 (log10 of the value in µM)

{"COMPOUND": "Cc1ccccc1C(=O)Nc1scc(-c2ccc(Br)cc2)c1C(=O)O", "EXPERIMENTAL RESULT": 0.78}
{"COMPOUND": "COc1cccc(NC(=O)Nc2nc(SC(C)(C)C)ns2)c1", "EXPERIMENTAL RESULT": 1.20}
{"COMPOUND": "CCCCn1c(=O)c(C(=O)NCc2ccccc2Cl)c(O)c2ccccc21", "EXPERIMENTAL RESULT": 1.23}
{"COMPOUND": "Oc1c(Br)cc(Br)cc1CNc1cccc2cccnc12", "EXPERIMENTAL RESULT": 1.15}
{"COMPOUND": "O=C(NC12CC3CC(CC(C3)C1)C2)c1ccc([N+](=O)[O-])o1", "EXPERIMENTAL RESULT": 0.81}
{"COMPOUND": "COc1cccc(C(=O)Oc2ccc(CN=Nc3ccc(C(=O)O)cc3)cc2OC)c1", "EXPERIMENTAL RESULT": 1.32}
{"COMPOUND": "CCCCn1c(=O)c(C(=O)NCCc2ccccc2)c(O)c2ccccc21", "EXPERIMENTAL RESULT": 1.08}
{"COMPOUND": "COc1ccc(CC2=CC(=O)c3ccccc3C2=O)cc1", "EXPERIMENTAL RESULT": 2.06}
{"COMPOUND": "Cc1ccc(-c2cc(-c3ccccc3)nc(N(C)N)n2)cc1", "EXPERIMENTAL RESULT": 0.61}
{"COMPOUND": "CC1Oc2cc3oc4c(O)c(O)ccc4c(=O)c3c(O)c2C1(C)C (stereo not given)", "EXPERIMENTAL RESULT": 0.53}

meta.source: BindingDB's records for doi:10.1016/j.chembiol.2003.08.010
